# Test system: E. coli ATCC 25922
# Assay type: cell-based, Escherichia coli
# Condition parameters: chloramphenicol in combination with the UTBLP
Non-standard residues stand in square brackets, D forms with d. Residues, ends and D or L forms follow the SMILES beside them. *: point of attachment. Lys(Me) = CNCCCC[C@H](N)C(=O)O; Octanoyl = CCCCCCCC(=O)*
Readout kind: MICantibiotic [MICcombo]
# do not omit the unit; it follows the number

Consider the following illustrative entries.
| Molecule | MICantibiotic [MICcombo] |
| --- | --- |
| CCCCCCCC(=O)NCCCC[C@H](NC(=O)CCCCCCC)C(=O)N[C@@H](CCCCNC)C(=O)N[C@@H](CCCCNC)C(=O)N[C@@H](CCCCNC)C(=O)N[C@@H](CCCCNC)C(N)=O [UTBLP 6] (Octanoyl-K(Octanoyl)[Lys(Me)][Lys(Me)][Lys(Me)][Lys(Me)]-NH2) | 2 µg/mL |
| CCCCCCCC(=O)N[C@@H](CCCCN)C(=O)NCCCN(CCCNC(=O)[C@H](CCCCN)NC(=O)CCCCCCC)CC(=O)N[C@@H](CCCCN)C(N)=O | 1 µg/mL |

Next molecule, please.
I would be grateful if you could share the reported MICantibiotic [MICcombo] for CCCCCCCC(=O)NCCCC[C@H](NC(=O)CCCCCCC)C(=O)N[C@@H](CCCCN)C(=O)N[C@@H](CCCCN)C(=O)N[C@@H](CCCCN)C(=O)N[C@@H](CCCCN)C(N)=O [UTBLP 5] (Octanoyl-K(Octanoyl)KKKK-NH2) .
0.25 µg/mL

----------
# System: A. baumannii AB027
# Type: cell-based, Acinetobacter baumannii
# Condition parameters: UTBLP in combination with rifampicin
Non-standard residues stand in square brackets, D forms with d. Residues, ends and D or L forms follow the SMILES beside them. *: point of attachment. Lys(Me3) = C[N+](C)(C)CCCC[C@H](N)C(=O)O; Octanoyl = CCCCCCCC(=O)*
Readout kind: MICUTBLP [MICcombo] (µg/mL)
One number for each entry, in µg/mL.

| Compound | Experimental target | MICUTBLP [MICcombo] [µg/mL] |
| --- | --- | --- |
| CCCCCCCC(=O)N[C@@H](CCCCNC)C(=O)NCCCN(CCCNC(=O)[C@H](CCCCNC)NC(=O)CCCCCCC)CC(=O)N[C@@H](CCCCNC)C(N)=O | A. baumannii AB027 | 16 |
| CCCCCCCC(=O)N[C@@H](CCCCN(C)C)C(=O)NCCCN(CCCNC(=O)[C@H](CCCCN(C)C)NC(=O)CCCCCCC)CC(=O)N[C@@H](CCCCN(C)C)C(N)=O | A. baumannii AB027 | 4 |

Find MICUTBLP [MICcombo] (A. baumannii AB027) for the entry CCCCCCCC(=O)NCCCC[C@H](NC(=O)CCCCCCC)C(=O)N[C@@H](CCCC[N+](C)(C)C)C(=O)N[C@@H](CCCC[N+](C)(C)C)C(=O)N[C@@H](CCCC[N+](C)(C)C)C(=O)N[C@@H](CCCC[N+](C)(C)C)C(N)=O [UTBLP 8] (Octanoyl-K(Octanoyl)[Lys(Me3)][Lys(Me3)][Lys(Me3)][Lys(Me3)]-NH2)
16

----------
Provide the reported MICantibiotic [MICcombo] of each item.
# Tested on: E. coli ATCC 25922
# Type: cell-based, Escherichia coli
# Condition parameters: niclosamide in combination with the UTBLP
Non-standard residues stand in square brackets, D forms with d. Residues, ends and D or L forms follow the SMILES beside them. *: point of attachment. Lys(Me2) = CN(C)CCCC[C@H](N)C(=O)O; Octanoyl = CCCCCCCC(=O)*

| Compound | Experimental target | MICantibiotic [MICcombo] |
| --- | --- | --- |
| CCCCCCCC(=O)NCCCC[C@H](NC(=O)CCCCCCC)C(=O)N[C@@H](CCCCN(C)C)C(=O)N[C@@H](CCCCN(C)C)C(=O)N[C@@H](CCCCN(C)C)C(=O)N[C@@H](CCCCN(C)C)C(N)=O [UTBLP 7] (Octanoyl-K(Octanoyl)[Lys(Me2)][Lys(Me2)][Lys(Me2)][Lys(Me2)]-NH2) | E. coli ATCC 25922 | 1 µg/mL |

I would be grateful if you could share the reported MICantibiotic [MICcombo] for `CCCCCCCC(=O)N[C@@H](CCCCN(C)C)C(=O)NCCCN(CCCNC(=O)[C@H](CCCCN(C)C)NC(=O)CCCCCCC)CC(=O)N[C@@H](CCCCN(C)C)C(N)=O` .
8 µg/mL
